Tested on: MOLT-4
Experiment: NCI tumour cell line growth inhibition, 48 h
Calls of active or inactive are those of the source. Cut-off read from the data, not from the text of the source: active = GI50 up to about 1.1 µM and inactive = higher.
Parameter call: string, one of yes (1) for active, no (0) for inactive

Query: What classification did CC1(C)OCC(C(O)C2OC(C)(C)OC2/C=N\O)O1 (stereo not drawn) end up with in this test?
Reply: no (0)

Query: What classification did Cc1nc(Nc2ccccc2Cl)sc1C(=O)CC(=O)C(N)=O end up with in this test?
Reply: no (0)

Query: What classification did CC(=O)N(C)OC(=O)CC(=O)c1ccccc1 end up with in this test?
Reply: no (0)

Query: What classification did COc1cc(C2S/C(=C/c3ccccc3)C(=O)N2c2ccc(Cl)c(Cl)c2)cc(OC)c1OC (stereo not drawn) end up with in this test?
Reply: no (0)

Query: What classification did Cc1sc2nc3n(c(=O)c2c1C)N=C(c1ccccc1)CS3 end up with in this test?
Reply: no (0)

Query: What classification did CC(=O)OC1(C#N)CC2OC1C1N=NN(C(=O)OC(C)(C)C)C21 (stereo not drawn) end up with in this test?
Reply: no (0)

Query: What classification did CC[C@]1(Cc2ccc(OC)c(OC)c2)C2CC(C(=O)OC)ON2O[C@H](OCc2ccccc2)[C@@H]1OC(C)=O (stereo partly drawn) end up with in this test?
Reply: no (0)

Query: What classification did CCCCCCCCSC(SCCCCCCCC)=C1C(=O)N(c2ccccc2)N=C1C end up with in this test?
Reply: no (0)

Query: What classification did N#C/C(N)=C(C#N)/N=C/Nc1ccccc1N end up with in this test?
Reply: no (0)

Query: What classification did CC(C)(C)OC(=O)N1N=NC2C1C1CC(OCc3ccccc3)(OCc3ccccc3)C2O1 (stereo not drawn) end up with in this test?
Reply: no (0)

Query: What classification did O=C(Nc1cccc(NC(=O)c2cc(=O)c3ccccc3o2)n1)c1cc(=O)c2ccccc2o1 end up with in this test?
Reply: no (0)

Query: What classification did c1ccc(C2=Nc3nc4ccccc4n3C(c3ccccc3)C2)cc1 (stereo not drawn) end up with in this test?
Reply: no (0)

Query: What classification did COc1ccc2c(c1)CCN1CCCc3ccccc3C21 (stereo not drawn) end up with in this test?
Reply: no (0)

Query: What classification did CC(C)(C)c1ccc(O)c(Br)c1 end up with in this test?
Reply: no (0)

Query: What classification did CC(C)=CCC/C(C)=C/CC/C(C)=C/CC/C(C)=C/C=C/C=C(\C)CC/C=C(\C)CC/C=C(\C)CCC=C(C)C end up with in this test?
Reply: no (0)

Query: What classification did CCOc1ccccc1/C=C(/C#N)C(N)=O end up with in this test?
Reply: no (0)

Query: What classification did COc1cc2c(c(OC)c1OC)-c1ccc(SC)c(=O)cc1[C@@H](OC(=O)c1ccncc1)CC2 end up with in this test?
Reply: yes (1)

Query: What classification did O=C(NNC(=S)Nc1ccccc1)c1ccccc1Nc1ccccc1C(=O)NNC(=S)Nc1ccccc1 end up with in this test?
Reply: no (0)

Query: What classification did C=C([C@@]1(O)C[C@H]2[C@H](CCC2(OC)OC)[C@@H]2c3ccccc3O[C@@H]21)[Si](C)(C)C end up with in this test?
Reply: no (0)

Query: What classification did O=C1NC(O)c2cc3ccccc3cc2O1 (stereo not drawn) end up with in this test?
Reply: no (0)

Query: What classification did COc1ccc(CC(CO)NC(=O)OCc2ccccc2)cc1Oc1ccc(CC(CO)NC(=O)OCc2ccccc2)cc1 (stereo not drawn) end up with in this test?
Reply: no (0)

Query: What classification did O=c1sc2c(s1)SSSSS2 end up with in this test?
Reply: no (0)

Query: What classification did CC(O)C1CC1(CO)CNc1cc(Cl)nc(N)n1 (stereo not drawn) end up with in this test?
Reply: no (0)

Query: What classification did CCCCC1(O)CC2CC1C(C)C2(C)C (stereo not drawn) end up with in this test?
Reply: no (0)

Query: What classification did COC(=O)C1SC(N(C)c2ccccc2)=NC12c1ccccc1Nc1ccccc12 (stereo not drawn) end up with in this test?
Reply: no (0)

Query: What classification did C[C@]12CCC(=O)C=C1CC[C@@H]1[C@@H]2[C@@H](O)C[C@@]2(C)[C@H]1CC[C@]2(O)C(=O)COC(=O)COCC(=O)O end up with in this test?
Reply: no (0)

Query: What classification did COc1ccccc1NC(=O)C1=C(C)NC(C)=C(C(=O)Nc2ccccc2OC)C1c1ccc(C2C(C(=O)Nc3ccccc3OC)=C(C)NC(C)=C2C(=O)Nc2ccccc2OC)cc1 end up with in this test?
Reply: no (0)

Query: What classification did CN(C)CCNc1ccc2nnn3c4ccc(O)cc4c(=O)c1c23 end up with in this test?
Reply: yes (1)

Query: What classification did O=C(CNc1ccc(Cl)cc1Cl)Nn1c(-c2ccccc2)nc2ccccc2c1=O end up with in this test?
Reply: no (0)

Query: What classification did Cc1nnc2n1N=C(c1ccc(-c3ccc([N+](=O)[O-])cc3)o1)CS2 end up with in this test?
Reply: no (0)

Query: What classification did FC(F)(F)C1(Cl)C(c2ccccc2)=C1c1ccccc1 end up with in this test?
Reply: no (0)

Query: What classification did Sc1nnc(COc2ccc(Cl)cc2)o1 end up with in this test?
Reply: no (0)

Query: What classification did C#C[C@]1(O)CC[C@H]2[C@@H]3CCc4cc(OC(=O)c5cccc6cc7ccccc7nc56)ccc4[C@H]3CC[C@@]21C end up with in this test?
Reply: no (0)
